assay: Equilibrium water solubility at pH 4.0; type: physicochemical
recorded.metric: solubility thermodynamic (µg/mL)
Dear colleague, please return just the value in µg/mL, with no unit written.

Kindly note the recorded solubility thermodynamic for C=C(NC(=O)c1csc(-c2nc3c(cc2O)-c2nc(cs2)C(=O)N[C@@H]([C@@H](C)O)C(=O)N/C(=C(\C)OC)c2nc(cs2)C(=O)N[C@@H]2c4nc(cs4)C(=O)N[C@@H](COC(=O)c4c5c6c(cccc6n4O)COC(=O)C(O[C@H]4C[C@](C)(O)[C@H](N(C)C)[C@H](C)O4)[C@H]2OC5)c2nc-3cs2)n1)C(N)=O (stereo partly specified) , which is 340

====

experiment: Equilibrium water solubility at pH 2.6; format: physicochemical
recorded.metric: solubility thermodynamic

Kindly note the recorded solubility thermodynamic for CNCCNCC(NC(=O)c1csc(-c2nc3c(cc2O)-c2nc(cs2)C(=O)N[C@@H]([C@@H](C)O)C(=O)N/C(=C(\C)OC)c2nc(cs2)C(=O)N[C@@H]2c4nc(cs4)C(=O)N[C@@H](COC(=O)c4c5c6c(cccc6n4O)COC(=O)[C@@H](O[C@H]4C[C@](C)(O)[C@H](N(C)C)[C@H](C)O4)[C@H]2OC5)c2nc-3cs2)n1)C(N)=O (stereo partly specified) , which is > 2500 µg/mL

====

system: Staphylococcus aureus; assay: In vitro antibacterial activity against methicillin-sensitive Staphylococcus aureus A15090; type: functional
MIC values, listed per item

Kindly note the recorded MIC for CO/C(C)=C1/NC(=O)[C@H]([C@@H](C)O)NC(=O)c2csc(n2)-c2cc(O)c(-c3nc(C(=O)NC(CN4CCN(CC(=O)O)CC4)C(N)=O)cs3)nc2-c2csc(n2)[C@@H]2COC(=O)c3c4c5c(cccc5n3O)COC(=O)[C@@H](O[C@H]3C[C@](C)(O)[C@H](N(C)C)[C@H](C)O3)[C@@H](OC4)[C@H](NC(=O)c3csc1n3)c1nc(cs1)C(=O)N2 (stereo partly drawn) , which is 1 µg/mL

Kindly note the recorded MIC for CO/C(C)=C1/NC(=O)[C@H]([C@@H](C)O)NC(=O)c2csc(n2)-c2cc(O)c(-c3nc(C(=O)NC(CN4CCN(C)CC4)C(N)=O)cs3)nc2-c2csc(n2)[C@@H]2COC(=O)c3c4c5c(cccc5n3O)COC(=O)[C@@H](O[C@H]3C[C@](C)(O)[C@H](N(C)C)[C@H](C)O3)[C@@H](OC4)[C@H](NC(=O)c3csc1n3)c1nc(cs1)C(=O)N2 (stereo partly drawn) , which is 0.25 µg/mL

Kindly note the recorded MIC for CO/C(C)=C1/NC(=O)[C@H]([C@@H](C)O)NC(=O)c2csc(n2)-c2cc(O)c(-c3nc(C(=O)NC(CN4CCOCC4)C(N)=O)cs3)nc2-c2csc(n2)[C@@H]2COC(=O)c3c4c5c(cccc5n3O)COC(=O)[C@@H](O[C@H]3C[C@](C)(O)[C@H](N(C)C)[C@H](C)O3)[C@@H](OC4)[C@H](NC(=O)c3csc1n3)c1nc(cs1)C(=O)N2 (stereo partly drawn) , which is 0.007 µg/mL

====

assay: Equilibrium water solubility at pH 3.4; type: physicochemical
recorded.metric: solubility thermodynamic

Below are worked cases with known answers.
Kindly note the recorded solubility thermodynamic for CO/C(C)=C1/NC(=O)[C@H]([C@@H](C)O)NC(=O)c2csc(n2)-c2cc(O)c(-c3nc(C(=O)NC(CNCCc4ccccn4)C(N)=O)cs3)nc2-c2csc(n2)C2COC(=O)c3c4c5c(cccc5n3O)COC(=O)[C@@H](O[C@H]3C[C@](C)(O)[C@H](N(C)C)[C@H](C)O3)[C@@H](OC4)[C@H](NC(=O)c3csc1n3)c1nc(cs1)C(=O)N2 (stereo partly drawn) , which is > 10000 µg/mL

Kindly note the recorded solubility thermodynamic for CO/C(C)=C1/NC(=O)[C@H]([C@@H](C)O)NC(=O)c2csc(n2)-c2cc(O)c(-c3nc(C(=O)NC(CN(C)CCO)C(N)=O)cs3)nc2-c2csc(n2)[C@@H]2COC(=O)c3c4c5c(cccc5n3O)COC(=O)[C@@H](O[C@H]3C[C@](C)(O)[C@H](N(C)C)[C@H](C)O3)[C@@H](OC4)[C@H](NC(=O)c3csc1n3)c1nc(cs1)C(=O)N2 (stereo partly drawn) , which is > 10000 µg/mL

Attention now shifts to the item below.
Kindly note the recorded solubility thermodynamic for CO/C(C)=C1/NC(=O)[C@H]([C@@H](C)O)NC(=O)c2csc(n2)-c2cc(O)c(-c3nc(C(=O)NC(CN4CCN(C)CC4)C(N)=O)cs3)nc2-c2csc(n2)[C@@H]2COC(=O)c3c4c5c(cccc5n3O)COC(=O)[C@@H](O[C@H]3C[C@](C)(O)[C@H](N(C)C)[C@H](C)O3)[C@@H](OC4)[C@H](NC(=O)c3csc1n3)c1nc(cs1)C(=O)N2 (stereo partly drawn) , which is > 10000 µg/mL
